# Experimental system: T1, human LIGHT (TNFSF14), full length, membrane-bound (214E allele) (human, UniProt O43557 1-240)
# T1 construct: also called membrane LIGHT; human membrane LIGHT
# T1 sequence (O43557 whole entry K214E): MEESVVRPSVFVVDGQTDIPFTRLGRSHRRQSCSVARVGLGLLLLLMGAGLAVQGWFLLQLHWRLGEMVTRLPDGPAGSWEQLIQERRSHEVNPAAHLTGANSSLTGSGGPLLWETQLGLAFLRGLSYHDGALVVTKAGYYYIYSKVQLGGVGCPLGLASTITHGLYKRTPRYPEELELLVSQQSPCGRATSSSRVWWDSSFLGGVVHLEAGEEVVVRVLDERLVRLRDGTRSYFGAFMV
# Experimental details: competition with biotin-HVEM:Fc, HEK293FF LIGHT cells, flow cytometry
pIC50: −log10 of the molar value.

Binder | pIC50
3D12 (antibody, human IgG4, V domains shown, chimeric: mouse variable domains on human IgG4 HC (S-to-P and L-to-E at 248) and human CL; also called Parental 3D12; 3D12 chimeric) VH: QVQLQQPGAELVRPGASVTLSCKASDYTFTDSEIHWVKQTPVHGLEWIGEIDPETGGTAYNQKFKGKATLTADKSSSTAYMELRSLTSEDSAVYYCSRETDYFFDYWGQGTTLTVSS VL: DIQMTQSPASLSASVGETVTITCGASENIYGALNWYQRKQGKSPQLLIYGATNLADGMSSRFSGSGSGRQYSLKISSLHPDDVATYYCQNVLSTPWTFGGGTKLEIKR | 9.00
